These data points were gathered from paper PMC5500810.

# TEST TARGET: mouse EphA4-Fc (R&D Systems) (mouse, UniProt Q03137 20-547)
# Sequence (Q03137 20-547): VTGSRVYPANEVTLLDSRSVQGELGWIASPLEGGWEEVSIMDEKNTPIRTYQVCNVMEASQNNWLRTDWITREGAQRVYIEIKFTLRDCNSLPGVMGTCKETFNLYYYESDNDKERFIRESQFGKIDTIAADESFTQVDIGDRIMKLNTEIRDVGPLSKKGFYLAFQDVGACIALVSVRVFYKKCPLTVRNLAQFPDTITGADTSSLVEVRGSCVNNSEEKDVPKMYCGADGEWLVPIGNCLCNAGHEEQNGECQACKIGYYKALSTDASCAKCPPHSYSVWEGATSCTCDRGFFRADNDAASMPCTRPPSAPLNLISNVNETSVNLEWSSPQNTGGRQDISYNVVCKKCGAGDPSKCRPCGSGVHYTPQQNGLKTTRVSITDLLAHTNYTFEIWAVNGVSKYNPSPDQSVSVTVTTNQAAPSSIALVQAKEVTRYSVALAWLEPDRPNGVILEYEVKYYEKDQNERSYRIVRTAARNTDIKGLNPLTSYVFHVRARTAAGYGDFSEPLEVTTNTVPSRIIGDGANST
# MEASUREMENT NOTES: SPR
Listing of entries alongside the reported pKd.
Reminder that pKd means the negative base-10 logarithm of the concentration expressed in mol/L.

Qu. Name the recorded pKd of the binder listed here: Nb 22 (VHH, biotin on primary amines (EZ link NHS biotin) in the Eph receptor selectivity AlphaScreen only) VHH: QVQLQESGGGPVRAGESLRLSCTASGRAFSTYTMGWFRQAPGKERELVAVITPGGNTNYADSVKGRFTISRDDAKNTVYLQMNSLKPVDTAVYYCHVVLAVVGTGNEYDVWGQGTQVTVSS
Ans. 6.98

Qu. Name the recorded pKd of the binder listed here: Nb 53 (VHH, biotin on primary amines (EZ link NHS biotin) in the Eph receptor selectivity AlphaScreen only) VHH: QVQLQESGGGVVQAGGSLRLSCAASGRAFSSYAMGWFRQAPGTKREMIAAVTRAGTTNYANPVKGRFTISRDDAKNMVYLQMNNLKPEDSAVYYCNAISPLWDEYDFWGPGTQVTVSS
Ans. 7.64

Qu. Name the recorded pKd of the binder listed here: Nb 39 (VHH, biotin on primary amines (EZ link NHS biotin) in the Eph receptor selectivity AlphaScreen only) VHH: QVQLQESGGGLVQPGGSLKLSCAASGFTFSTYAMSWVRQAPGKGLEWVSRINSGGGYTWHADSVKGRFTISRDNARNTVYLQMNNLKPEDTAVYYCTNLNTGWRPEYWGQGTQVTVSS
Ans. 7.63

Qu. Name the recorded pKd of the binder listed here: Nb 19 (VHH) VHH: QVQLQESGGGLVQPGGSLRLSCAATGRNFNAYSIAWFRQAPGKEREFVASINWSGSNTYYAVAVKGRFTTSRDNAKNTVYLQMNSLKPEDTAVYYCNAFAAGWGPDYWGQGTQVTVSS
Ans. 5.94
